- Target system: Protein cereblon/Bromodomain-containing protein 4 (Homo sapiens, UniProt O60885+Q96SW2)
- Sequence (Q96SW2 whole entry, looked up, other chains not shown): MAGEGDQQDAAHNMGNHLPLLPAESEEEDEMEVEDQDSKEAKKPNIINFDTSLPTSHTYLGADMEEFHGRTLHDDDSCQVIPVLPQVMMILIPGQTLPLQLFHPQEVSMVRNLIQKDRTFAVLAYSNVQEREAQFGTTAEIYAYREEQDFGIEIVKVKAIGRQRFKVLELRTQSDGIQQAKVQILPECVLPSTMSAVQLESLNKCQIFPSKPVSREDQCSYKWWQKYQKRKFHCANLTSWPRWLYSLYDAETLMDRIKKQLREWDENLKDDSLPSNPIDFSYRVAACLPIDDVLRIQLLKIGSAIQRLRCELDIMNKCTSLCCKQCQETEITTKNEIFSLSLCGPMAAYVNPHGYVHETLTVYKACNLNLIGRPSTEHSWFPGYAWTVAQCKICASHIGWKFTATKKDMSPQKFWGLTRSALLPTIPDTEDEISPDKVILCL
- Method: Photocaged-PROTAC activity at CRBN/BRD4 in human Ramos cells assessed as […] Brd4 protein degradation pre-incubated for 2 hrs followed by visible light irradiation at 405 nM for 3 mins and measured after 12 hrs by Western blot analysis
- Type: cell-based
Observable: DC50 (nM)
Answer format: numeric, nM implied, no suffix.

*Q* Entry Cc1sc2c(c1C)C(c1ccc(Cl)cc1)=N[C@@H](CC(=O)N(CCCCNC(=O)COc1cccc3c1C(=O)N(C1CCC(=O)NC1=O)C3=O)Cc1cc3oc4ccccc4c3cc1[N+](=O)[O-])c1nnc(C)n1-2 (stereo not given in full) has what DC50?
*A* 32

*Q* Entry Cc1sc2c(c1C)C(c1ccc(Cl)cc1)=N[C@@H](CC(=O)NCCCCNC(=O)COc1cccc3c1C(=O)N(C1CCC(=O)N(OCc4cc5oc6ccccc6c5cc4[N+](=O)[O-])C1=O)C3=O)c1nnc(C)n1-2 (stereo not given in full) has what DC50?
*A* 108

*Q* Entry Cc1sc2c(c1C)C(c1ccc(Cl)cc1)=N[C@@H](CC(=O)N(CCCCNC(=O)COc1cccc3c1C(=O)N(C1CCC(=O)NC1=O)C3=O)C(C)c1cc3c(cc1[N+](=O)[O-])oc1ccccc13)c1nnc(C)n1-2 (stereo not given in full) has what DC50?
*A* 65

*Q* Entry Cc1sc2c(c1C)C(c1ccc(Cl)cc1)=N[C@@H](CC(=O)N(CCCCNC(=O)COc1cccc3c1C(=O)N(C1CCC(=O)NC1=O)C3=O)Cc1cc3c(cc1[N+](=O)[O-])oc1cc(N(C)C)ccc13)c1nnc(C)n1-2 (stereo not given in full) has what DC50?
*A* 62
